Biological target: Estrogen receptor (Homo sapiens)
Experiment: blockers of coactivator recruitment to ERα – biochemical, LOPAC library, TR-FRET, primary screen (AID 694);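 further: receptor was agonist-bound with estradiol present during the assay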
Conditions: TR-FRET ERalpha-coactivator peptide binding, at 45 µM, stronger effect = higher value
The campaign covered roughly 1,300 compounds. About 25 (2%) were called active. The sample as a whole holds a higher share of actives than the screen did.

Compound | Quantity unit | inhibition
NC(C(=O)N[C@@H]1C(=O)N2C(C(=O)O)=C(Cl)CS[C@H]12)c1ccccc1 (stereo not given in full) | % | -11.2
CC(C)(C)c1ccc(S(=O)(=O)/C=C/C#N)cc1 | % | -4.31
COc1cc(C(O)C(=O)O)ccc1O (stereo not given) | % | -7.3
O=C1c2c(O)cc(O)cc2OC(c2ccc(O)c(O)c2)C1O (stereo not given) | % | 7.88
C[C@@H](NC(=O)/C(C#N)=C/c1ccc(O)c(O)c1)c1ccccc1 | % | 2.49
CC(C)C[C@H](NC(=O)[C@@H](O)[C@H](N)Cc1ccccc1)C(=O)O | % | -3.72
Cc1nc(N=Nc2cc(S(=O)(=O)O)c3cc([N+](=O)[O-])cc(S(=O)(=O)O)c3c2)c(COP(=O)(O)O)c(C=O)c1O | % | 60.6
Cc1ccccc1CNc1ncnc2c1ncn2C1OC(CO)C(O)C1O (stereo not given) | % | -2.05
C[C@]12CCC(=O)C=C1CC[C@@H]1[C@@H]2[C@@H](O)C[C@@]2(C)[C@H]1CC[C@]2(O)C(=O)COC(=O)CCC(=O)O | % | 0.81
CC(C)C[C@H](NC(=O)[C@H](O)[C@H](N)Cc1ccccc1)C(=O)O | % | -1.92

----------
Biological target: Estrogen receptor (Homo sapiens)
Test: blockers of coactivator recruitment to ERα – biochemical, LOPAC library, TR-FRET, primary screen (AID 694);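 further: receptor was agonist-bound with estradiol present during the assay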
Conditions: TR-FRET ERalpha-coactivator peptide binding, at 45 µM
Hit rate of the full screen: of about 1,300 compounds, about 25 (2%) were called active. No rule for the calls is given here. Only a selection was taken, and actives are over-represented in it overall.
Outcomes: active, inactive

Compound | Tested system | Group label
OCC1NCC(O)C(O)C1O (configuration not stated) | Estrogen receptor (Homo sapiens) | inactive
O=c1c(O)c(-c2cc(O)c(O)c(O)c2)oc2cc(O)cc(O)c12 | Estrogen receptor (Homo sapiens) | active
COC(=O)c1c(-c2cc(OC)c(OC)c(OC)c2)c2ccnc(OCc3ncccn3)c2c(=O)n1Cc1ccnc(C)c1 | Estrogen receptor (Homo sapiens) | inactive
O=C(O)CCC(NC(=O)c1ccccc1C(=O)O)C(=O)O (configuration not stated) | Estrogen receptor (Homo sapiens) | inactive
N[C@@H](CCCC(=O)O)C(=O)O | Estrogen receptor (Homo sapiens) | active
C[n+]1cc2c3c(ccc2c2ccc4cc5c(cc4c21)OCO5)OCO3 | Estrogen receptor (Homo sapiens) | inactive
Nc1nc(OCc2ccccc2)c2[nH]cnc2n1 | Estrogen receptor (Homo sapiens) | inactive
N=c1c[n+](N2CCOCC2)[n-]o1 | Estrogen receptor (Homo sapiens) | inactive
NC(N)=NCCC[C@H](N)C(=O)O | Estrogen receptor (Homo sapiens) | inactive
CN1C(C)(C)CCCC1(C)C | Estrogen receptor (Homo sapiens) | inactive
NC(=S)NCCCC(N)C(=O)O (configuration not stated) | Estrogen receptor (Homo sapiens) | inactive
O=[N+]([O-])c1ccc(-c2nc(-c3ccc(F)cc3)c(-c3ccncc3)[nH]2)cc1 | Estrogen receptor (Homo sapiens) | inactive

----------
Molecular target: Estrogen receptor (Homo sapiens) (UniProt P03372)
Sequence (P03372 whole entry, looked up): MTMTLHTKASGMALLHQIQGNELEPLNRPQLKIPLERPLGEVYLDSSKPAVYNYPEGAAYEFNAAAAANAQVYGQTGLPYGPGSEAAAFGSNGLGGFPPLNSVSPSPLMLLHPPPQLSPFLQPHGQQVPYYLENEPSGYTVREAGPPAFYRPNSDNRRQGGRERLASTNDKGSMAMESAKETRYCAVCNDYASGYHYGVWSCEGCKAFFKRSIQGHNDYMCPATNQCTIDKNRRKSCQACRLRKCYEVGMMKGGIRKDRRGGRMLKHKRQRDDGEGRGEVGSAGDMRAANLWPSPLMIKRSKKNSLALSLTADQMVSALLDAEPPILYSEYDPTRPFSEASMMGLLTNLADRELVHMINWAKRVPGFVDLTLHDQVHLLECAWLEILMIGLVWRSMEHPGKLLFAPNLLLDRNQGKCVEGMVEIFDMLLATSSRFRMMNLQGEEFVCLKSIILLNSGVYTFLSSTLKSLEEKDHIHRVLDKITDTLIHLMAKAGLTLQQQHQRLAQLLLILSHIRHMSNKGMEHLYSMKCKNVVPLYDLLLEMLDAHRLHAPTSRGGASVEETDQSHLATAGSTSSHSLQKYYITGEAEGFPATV
Assay: blockers of coactivator recruitment to ERα – biochemical, LOPAC library, TR-FRET, primary screen (AID 694);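 further: receptor was agonist-bound with estradiol present during the assay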
Conditions: TR-FRET ERalpha-coactivator peptide binding, inhibition, at 15 µM, stronger effect = higher value
The campaign covered roughly 1,300 compounds. About 25 (2%) were called active. What follows is part of a selection rich in actives, with near analogues and random picks from the rest.
// reported inhibition per item

Compound | Tested system | inhibition / %
CCCCC#Cc1nc(N)c2ncn([C@@H]3O[C@H](C(=O)NCC)[C@@H](O)[C@H]3O)c2n1 | Estrogen receptor (Homo sapiens) (UniProt P03372) | 5.8
CC(=O)N1CCN(c2ccc(OC[C@H]3CO[C@](Cn4ccnc4)(c4ccc(Cl)cc4Cl)O3)cc2)CC1 | Estrogen receptor (Homo sapiens) (UniProt P03372) | 1.67
Cc1cc(N)c2ccccc2[n+]1CCCCCCCCCCCCCC[n+]1c(C)cc(N)c2ccccc21 | Estrogen receptor (Homo sapiens) (UniProt P03372) | 65.9
Cc1cccc(C)c1OCC(N)C(C)C (stereo not given) | Estrogen receptor (Homo sapiens) (UniProt P03372) | -1.42
COc1cc(=O)n(C)c2c(OCC(O)C(C)(C)O)cccc12 (stereo not given) | Estrogen receptor (Homo sapiens) (UniProt P03372) | 3.61
Cc1nc(N=Nc2ccc(C(=O)O)cc2)c(COP(=O)(O)O)c(C=O)c1O | Estrogen receptor (Homo sapiens) (UniProt P03372) | -0.22
COc1ccc(/C=C/C(=O)Nc2ccccc2C(=O)O)cc1OC | Estrogen receptor (Homo sapiens) (UniProt P03372) | 4.38
CC(CCc1ccc(O)cc1)NCCc1ccc(O)c(O)c1 (stereo not given) | Estrogen receptor (Homo sapiens) (UniProt P03372) | 1.1
Cc1cnc(NC(=O)C2=C(O)c3ccccc3S(=O)(=O)N2C)s1 | Estrogen receptor (Homo sapiens) (UniProt P03372) | -3.85
Cc1cc(N)c2ccccc2[n+]1CCCCCCCCCC[n+]1c(C)cc(N)c2ccccc21 | Estrogen receptor (Homo sapiens) (UniProt P03372) | 30.1
C[N+](C)(C)CCOC(=O)CCC(=O)OCC[N+](C)(C)C | Estrogen receptor (Homo sapiens) (UniProt P03372) | 0.18
NC(N)=[N+]1CCc2ccccc2C1 | Estrogen receptor (Homo sapiens) (UniProt P03372) | 1.64
N#C/C(=C\c1c[nH]c2ccccc12)C(=O)c1ccc(O)c(O)c1 | Estrogen receptor (Homo sapiens) (UniProt P03372) | 10.1
CC(C)(Sc1ccc(CCN(CCCCC2CCCCC2)C(=O)NC2CCCCC2)cc1)C(=O)O | Estrogen receptor (Homo sapiens) (UniProt P03372) | 8.46
CC[C@@H](C)[C@H]1O[C@]2(CC[C@@H]1C)C[C@@H]1C[C@@H](C/C=C(\C)[C@@H](O[C@H]3C[C@H](OC)[C@@H](O[C@H]4C[C@H](OC)[C@@H](O)[C@H](C)O4)[C@H](C)O3)[C@@H](C)/C=C/C=C3\CO[C@@H]4[C@H](O)C(C)=C[C@@H](C(=O)O1)[C@]34O)O2 | Estrogen receptor (Homo sapiens) (UniProt P03372) | 3.41
NC(C(=O)N[C@@H]1C(=O)N2C(C(=O)O)=C(Cl)CS[C@H]12)c1ccccc1 (stereo not given in full) | Estrogen receptor (Homo sapiens) (UniProt P03372) | -2.54
CCCCCCCCCCCCC/C=C/C(O)C(N)CO (stereo not given) | Estrogen receptor (Homo sapiens) (UniProt P03372) | -17.3
COc1ccccc1N1CCN(CCCNc2c(C)c(=O)n(C)c(=O)n2C)CC1 | Estrogen receptor (Homo sapiens) (UniProt P03372) | 1.69
CCNC(=O)C1OC(n2cnc3c(NCc4ccccc4)ncnc32)C(O)C1O (stereo not given) | Estrogen receptor (Homo sapiens) (UniProt P03372) | 1.9
OC(CN1CCN(c2cccc(Cl)c2)CC1)C(c1ccccc1)c1ccccc1 (stereo not given) | Estrogen receptor (Homo sapiens) (UniProt P03372) | 4.55

----------
Reported inhibition values for a set of compounds
Biological target: Estrogen receptor (Homo sapiens) (UniProt P03372)
Test: blockers of coactivator recruitment to ERα – biochemical, LOPAC library, TR-FRET, primary screen (AID 694);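 further: receptor was agonist-bound with estradiol present during the assay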
Conditions: TR-FRET ERalpha-coactivator peptide binding, at 45 µM, stronger effect = higher value
The whole screen tested about 1,300 compounds, of which about 25 (2%) were called active. Shown is part of a subset that was picked to be rich in actives.
Attribute measured: inhibition

Compound | Attribute measured | Result
Cc1cccc(/C=C/c2ccccc2)n1 | inhibition | 4.39% (inactive)
O=C(Nc1cc(C(=O)Nc2ccc(S(=O)(=O)O)cc2S(=O)(=O)O)cc(C(=O)Nc2ccc(S(=O)(=O)O)cc2S(=O)(=O)O)c1)Nc1cc(C(=O)Nc2ccc(S(=O)(=O)O)cc2S(=O)(=O)O)cc(C(=O)Nc2ccc(S(=O)(=O)O)cc2S(=O)(=O)O)c1 | inhibition | 22.9% (inactive)
C[N+](C)(C)CCOC(=O)CCC(=O)OCC[N+](C)(C)C | inhibition | -6.43% (inactive)
NCC(O)C1CCCCCCC1 (centres undefined) | inhibition | -4.78% (inactive)

----------
Biological target: Estrogen receptor (Homo sapiens) (UniProt P03372)
Assay: blockers of coactivator recruitment to ERα – biochemical, LOPAC library, TR-FRET, primary screen (AID 694);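 further: receptor was agonist-bound with estradiol present during the assay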
Conditions: TR-FRET ERalpha-coactivator peptide binding, at 45 µM
About 25 (2%) of roughly 1,300 compounds were called active. No rule for the calls is given here. The entries come from a sample that favours actives as a whole.
Classes used: yes for active, no for inactive

Compound | Group label
CN(C)C(=O)/N=N/C(=O)N(C)C | no
CN(CCOc1ccc(C[C@H](Nc2ccccc2C(=O)c2ccccc2)C(=O)O)cc1)c1ccccn1 | no
C=Cc1c(C)c2cc3[nH]c(cc4nc(cc5nc(cc1[nH]2)C(C)=C5CCC(=O)O)C(CCC(=O)O)=C4C)c(C)c3C=C | yes
COc1cccc(OC)c1OCCNCC1COc2ccccc2O1 (stereo not given) | no
C/C=C1\C(=O)CC2C3CCC4=CC(=O)CC[C@]4(C)C3CC[C@]12C (stereo not given in full) | no
Cc1nc(N=Nc2ccc(S(=O)(=O)O)cc2S(=O)(=O)O)c(COP(=O)(O)O)c(C=O)c1O | no
OC(CN1CCN(c2cccc(Cl)c2)CC1)C(c1ccccc1)c1ccccc1 (stereo not given) | no
COc1ccccc1N1CCN(CCCNc2cc(=O)n(C)c(=O)n2C)CC1 | no
Nc1ccc(N2C(=O)c3ccccc3C2=O)c(Cl)c1 | no
CC1(C)CCC2=C(O1)c1ccccc1C(=O)C2=O | no
